Reference source: patent US10246442B2

System: Erythropoietin secretion, Hep-3B cells
Assay: Cellular assay: EPO secretion in Hep-3B cells
Format: cell-based
Conditions: Homo sapiens, Hep3B, 100 μM compound, 24 hours, percent of EPO secretion relative to assay control compound 7-[(4-Chloro-phenyl)-(5-methyl-isoxazol-3-ylamino)-methyl]-quinolin-8-ol, read-out: Cellular % EPO Stimulation
readout: activation at 100 µM (%)
Quick reminder: number only, in %, skip the unit.

{"smiles-entry": "Cc1cccc(C)c1Oc1cc2c(N3CCCC3)nc(-n3cc(C(=O)O)cn3)nc2cc1F", "system": "Erythropoietin secretion, Hep-3B cells", "unit-abbreviation": "%", "activation at 100 µM": 25}
{"smiles-entry": "CN(C)c1nc(-n2cc(C(=O)O)cn2)nc2ccc(OC3CCCCC3)cc12", "system": "Erythropoietin secretion, Hep-3B cells", "unit-abbreviation": "%", "activation at 100 µM": 62}
{"smiles-entry": "N#CC1CCN(c2nc(-n3cc(C(=O)O)cn3)nc3ccc(Oc4ccc(Cl)cc4)cc23)CC1", "system": "Erythropoietin secretion, Hep-3B cells", "unit-abbreviation": "%", "activation at 100 µM": 77}
{"smiles-entry": "CCN(CC)c1nc(-n2cc(C(=O)O)cn2)nc2ccc(N3CCCCC3)cc12", "system": "Erythropoietin secretion, Hep-3B cells", "unit-abbreviation": "%", "activation at 100 µM": 94}
{"smiles-entry": "CCCN(CCC)c1nc(-n2cc(C(=O)O)cn2)nc2cc(F)c(Oc3c(C)cccc3C)cc12", "system": "Erythropoietin secretion, Hep-3B cells", "unit-abbreviation": "%", "activation at 100 µM": 9}

Query :: What value of activation at 100 µM on Erythropoietin secretion, Hep-3B cells does O=C(O)c1cnn(-c2nc(NC3CC3)c3cc(Oc4ccccc4)ccc3n2)c1 have?
Result :: 20

Query :: Which activation at 100 µM is reported with Erythropoietin secretion, Hep-3B cells for this entry: CCN(C)c1nc(-n2cc(C(=O)O)cn2)nc2ccc(OC3CCCCC3)cc12 ?
Result :: 56
